Data provenance: patent US11542259B2

Target: AXL (Homo sapiens (Human), UniProt P30530)
Sequence (P30530 26-894): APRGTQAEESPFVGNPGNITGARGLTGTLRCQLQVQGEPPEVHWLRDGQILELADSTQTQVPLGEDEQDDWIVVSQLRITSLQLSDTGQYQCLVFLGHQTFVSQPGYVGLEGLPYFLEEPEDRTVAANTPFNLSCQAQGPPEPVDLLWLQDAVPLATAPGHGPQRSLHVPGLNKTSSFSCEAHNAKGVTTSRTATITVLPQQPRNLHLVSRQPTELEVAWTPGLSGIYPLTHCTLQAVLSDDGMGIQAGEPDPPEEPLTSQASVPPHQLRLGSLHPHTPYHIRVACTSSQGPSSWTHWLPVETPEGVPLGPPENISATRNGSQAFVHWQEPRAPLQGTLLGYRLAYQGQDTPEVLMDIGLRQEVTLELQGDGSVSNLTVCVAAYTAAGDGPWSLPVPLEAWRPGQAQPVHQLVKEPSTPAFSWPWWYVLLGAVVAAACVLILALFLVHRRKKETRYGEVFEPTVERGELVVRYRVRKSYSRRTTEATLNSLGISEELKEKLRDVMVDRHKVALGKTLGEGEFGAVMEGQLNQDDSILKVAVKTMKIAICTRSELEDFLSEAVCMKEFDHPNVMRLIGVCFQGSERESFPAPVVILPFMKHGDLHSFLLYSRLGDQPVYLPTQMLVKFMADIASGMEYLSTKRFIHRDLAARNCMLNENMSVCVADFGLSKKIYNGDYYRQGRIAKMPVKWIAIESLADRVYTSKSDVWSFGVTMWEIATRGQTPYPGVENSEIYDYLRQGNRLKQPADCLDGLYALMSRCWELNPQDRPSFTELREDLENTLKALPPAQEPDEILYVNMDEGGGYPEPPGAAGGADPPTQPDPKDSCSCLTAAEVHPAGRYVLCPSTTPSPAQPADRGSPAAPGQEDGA
Assay: AXL autophosphorylation ELISA in A-172 cells
Format: cell-based
Details: cellular, Gas6 stimulated
Description: A-172 glioblastoma cells (ATCC #CRL-1620) were seeded at 2.5×10^5 cells/well onto 24-well plates (Greiner #662165), in DMEM (Thermo Fisher #11995-040) containing 10% FBS (Thermo Fisher #26140-079), 1% MEM NEAA (Thermo Fisher #11140-050), 1% GlutaMax (Thermo Fisher #35050-061) and 1% Penicillin Streptomycin (Thermo Fisher #15140-122). […] IC50 values were calculated by nonlinear regression analysis using a 4-parameter logistic curve fit in ActivityBase XE (IDBS).
pIC50: −log10 of the molar value.
Items are presented alongside their recorded pIC50.

molecule	pIC50
CC(=O)c1ccc2c(Oc3ccc(NC(=O)C4(C(=O)Nc5ccc(F)cc5)CC4)cc3)ccnc2c1 [Compound 255]	< 6.52
O=C(NOCCO)c1ccc2c(Oc3cc(F)c(NC(=O)C4(C(=O)Nc5ccc(F)cc5)CC4)cc3F)ccnc2c1 [Compound 302]	7.00 to 8.00
CNC(=O)c1ccc2nccc(Oc3ccc(NC(=O)C4(C(=O)Nc5ccc(F)cc5)CC4)cc3)c2c1 [Compound 59]	6.52 to 7.00
CNC(=O)c1cc2nccc(Oc3ccc(NC(=O)C4(C(=O)Nc5ccc(F)cc5)CC4)cc3)c2cc1C [Compound 143]	7.00 to 8.00
COc1cc2nccc(Oc3ccc(NC(=O)C4(C(=O)Nc5ccc(F)cc5)CC4)cc3)c2cc1-c1cnoc1 [Compound 183]	7.00 to 8.00
O=C(Nc1ccc(F)cc1)C1(C(=O)Nc2ccc(Oc3ccnc4ccc(-c5ccn[nH]5)cc34)cc2)CC1 [Compound 204]	7.00 to 8.00
COc1cc2nccc(Oc3ccc(NC(=O)C4(C(=O)Nc5ccc(F)cc5)CC4)cc3)c2cc1-c1cnn(C)c1 [Compound 182]	≥ 8.00
COc1cc2nccc(Oc3ccc(NC(=O)C4(C(=O)Nc5ccc(F)cc5)CC4)cc3)c2cc1C(C)=O [Compound 34]	≥ 8.00
CCNS(=O)(=O)c1cc2c(Oc3ccc(NC(=O)C4(C(=O)Nc5ccc(F)cc5)CC4)cc3)ccnc2cc1OC [Compound 208]	7.00 to 8.00
CN1CC(NC(=O)c2ccc3nccc(Oc4ccc(NC(=O)C5(C(=O)Nc6ccc(F)cc6)CC5)cc4)c3c2)C1 [Compound 60]	6.52 to 7.00
NC(=O)c1cc2c(Oc3ccc(NC(=O)C4(C(=O)Nc5ccc(F)cc5)CC4)cc3)ccnc2cc1OCCCN1CCOCC1 [Compound 98]	≥ 8.00
COc1cc2nccc(Oc3ccc(NC(=O)C4(C(=O)Nc5ccc(F)cc5)CC4)cc3)c2cc1-c1c(C)noc1C [Compound 184]	6.52 to 7.00
COc1cc2nccc(Oc3ccc(NC(=O)C4(C(=O)Nc5ccc(F)cc5)CC4)cc3)c2cc1-c1ncco1 [Compound 45]	≥ 8.00
COc1cc2nccc(Oc3ccc(NC(=O)C4(C(=O)Nc5ccc(F)cc5)CC4)cc3)c2cc1-c1cn[nH]c1 [Compound 186]	≥ 8.00
COc1cc2nccc(Oc3ccc(NC(=O)C4(C(=O)Nc5ccc(F)cc5)CC4)cc3)c2cc1C1(O)COC1 [Compound 196]	7.00 to 8.00
CNC(=O)Nc1cc2c(Oc3ccc(NC(=O)C4(C(=O)Nc5ccc(F)cc5)CC4)cc3)ccnc2cc1OC [Compound 279]	≥ 8.00
CNC(=O)c1cc2c(Oc3ccc(NC(=O)C4(C(=O)Nc5c(C)cc(F)cc5C)CC4)cc3F)ccnc2cc1OC [Compound 267]	7.00 to 8.00
CNC(=O)c1cc2c(Oc3ccc(NC(=O)C4(C(=O)Nc5ccc(F)cc5)CC4)cc3)ccnc2cc1OCC(C)O (stereo not shown) [Compound 116]	≥ 8.00
CONC(=O)c1cc2c(Oc3ccc(NC(=O)C4(C(=O)Nc5ccc(F)cc5)CC4)cc3)ccnc2cc1OC [Compound 17]	7.00 to 8.00
CNC(=O)c1cc2c(Oc3ccc(NC(=O)C4(C(=O)Nc5ccc(F)cc5Cl)CC4)cc3F)ccnc2cc1OC [Compound 264]	7.00 to 8.00
COc1cc2nccc(Oc3ccc(NC(=O)C4(C(=O)Nc5ccc(F)cc5)CC4)cc3)c2cc1C#N [Compound 37]	7.00 to 8.00
CNC(=O)c1cc2c(Oc3ccc(NC(=O)C4(C(=O)Nc5ccc(F)cc5)CC4)cc3)ccnc2cc1N [Compound 88]	6.52 to 7.00
COc1cc2nccc(Oc3ccc(NC(=O)C4(C(=O)Nc5ccc(F)cc5)CC4)cc3)c2cc1C(=O)N1CCC1 [Compound 15]	7.00 to 8.00
CNC(=O)c1ccc2c(Oc3ccc(NC(=O)C4(C(=O)Nc5ccc(F)cc5)CC4)cc3)ccnc2c1 [Compound 165]	7.00 to 8.00
COc1cc2nccc(Oc3ccc(NC(=O)C4(C(=O)Nc5ccc(F)cc5)CC4)cc3)c2cc1C(=O)NC[C@@H]1CCCN1 [Compound 22]	≥ 8.00
COC(=O)c1cc2nccc(Oc3ccc(NC(=O)C4(C(=O)Nc5ccc(F)cc5)CC4)cc3)c2cc1C [Compound 140]	7.00 to 8.00
CC(O)COc1cc2nccc(Oc3ccc(NC(=O)C4(C(=O)Nc5ccc(F)cc5)CC4)cc3)c2cc1-c1ncco1 (stereo not shown) [Compound 125]	≥ 8.00
COC(=O)c1cc2c(Oc3ccc(NC(=O)C4(C(=O)Nc5ccc(F)cc5)CC4)cc3)ccnc2cc1N [Compound 90]	7.00 to 8.00
